- testSystem: PI3Kα (Homo sapiens, UniProt P42336)
- Sequence (P42336 whole entry): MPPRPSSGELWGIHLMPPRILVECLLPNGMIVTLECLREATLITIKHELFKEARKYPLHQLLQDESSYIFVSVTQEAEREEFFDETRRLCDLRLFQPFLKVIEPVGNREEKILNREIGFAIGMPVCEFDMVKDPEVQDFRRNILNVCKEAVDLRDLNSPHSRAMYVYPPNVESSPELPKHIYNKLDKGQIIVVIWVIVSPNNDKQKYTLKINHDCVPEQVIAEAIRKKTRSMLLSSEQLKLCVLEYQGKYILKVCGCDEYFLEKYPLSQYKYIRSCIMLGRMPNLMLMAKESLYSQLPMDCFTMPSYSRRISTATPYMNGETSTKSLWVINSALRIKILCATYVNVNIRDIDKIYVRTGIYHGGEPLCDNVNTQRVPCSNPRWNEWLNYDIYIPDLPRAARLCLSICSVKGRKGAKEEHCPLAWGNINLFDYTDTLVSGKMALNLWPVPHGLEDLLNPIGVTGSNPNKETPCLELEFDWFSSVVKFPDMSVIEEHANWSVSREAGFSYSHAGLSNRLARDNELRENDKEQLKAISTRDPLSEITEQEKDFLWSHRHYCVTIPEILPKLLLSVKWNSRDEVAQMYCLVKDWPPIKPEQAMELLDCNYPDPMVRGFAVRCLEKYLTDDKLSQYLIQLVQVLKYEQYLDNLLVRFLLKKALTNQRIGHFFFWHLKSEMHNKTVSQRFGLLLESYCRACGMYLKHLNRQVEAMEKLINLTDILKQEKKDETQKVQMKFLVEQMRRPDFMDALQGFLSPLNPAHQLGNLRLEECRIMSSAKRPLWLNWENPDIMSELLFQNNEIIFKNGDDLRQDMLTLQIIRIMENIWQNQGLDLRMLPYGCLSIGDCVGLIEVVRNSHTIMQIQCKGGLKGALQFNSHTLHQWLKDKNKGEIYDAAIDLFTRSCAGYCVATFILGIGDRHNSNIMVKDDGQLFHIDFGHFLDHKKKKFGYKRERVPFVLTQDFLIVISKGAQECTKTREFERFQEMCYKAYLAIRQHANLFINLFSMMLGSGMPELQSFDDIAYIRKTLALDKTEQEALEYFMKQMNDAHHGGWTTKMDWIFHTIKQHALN
- Sequence (P27986 2-724, further chain): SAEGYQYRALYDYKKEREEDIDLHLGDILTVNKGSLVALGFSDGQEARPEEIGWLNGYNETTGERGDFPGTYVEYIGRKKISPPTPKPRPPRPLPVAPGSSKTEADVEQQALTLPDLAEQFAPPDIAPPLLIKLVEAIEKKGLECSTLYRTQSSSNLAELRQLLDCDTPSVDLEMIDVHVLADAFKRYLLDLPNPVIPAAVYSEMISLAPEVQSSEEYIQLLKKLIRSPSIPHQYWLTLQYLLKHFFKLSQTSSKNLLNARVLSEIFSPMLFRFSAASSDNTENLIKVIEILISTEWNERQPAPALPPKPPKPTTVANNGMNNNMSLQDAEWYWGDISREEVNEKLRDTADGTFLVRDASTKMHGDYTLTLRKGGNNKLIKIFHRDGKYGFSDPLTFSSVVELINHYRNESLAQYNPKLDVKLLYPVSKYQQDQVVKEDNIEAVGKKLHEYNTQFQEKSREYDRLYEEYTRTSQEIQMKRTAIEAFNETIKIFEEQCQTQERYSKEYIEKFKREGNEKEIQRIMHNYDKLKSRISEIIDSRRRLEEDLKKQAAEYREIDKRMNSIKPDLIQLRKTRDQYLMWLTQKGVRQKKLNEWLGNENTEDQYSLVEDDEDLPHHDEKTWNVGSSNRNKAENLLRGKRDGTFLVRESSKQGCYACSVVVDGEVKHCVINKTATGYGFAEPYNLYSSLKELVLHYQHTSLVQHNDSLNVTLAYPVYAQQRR
- assayComment: cell-free ADP-Glo kinase assay with recombinant PI3Kα and poly-EY substrate
pIC50: −log10 of the molar value.

{"columns": ["compound", "pIC50"],
 "data": [
  ["OCCN1CCN(CC/C=C2/c3ccccc3Sc3ccc(C(F)(F)F)cc32)CC1 [flupentixol]", 6.90]
]}

Origin of measurements: paper PMC6643147
